System Tested: Large T antigen (Simian virus 40)
Experimental Protocol: SV40 large T antigen inhibitors, biochemical (AID 1903)
Condition Parameters: SV40 large T antigen ATPase/helicase inhibition assay; at 20 µM; active compounds read high
The whole screen tested about 310,000 compounds, of which about 1,200 (0.39%) were called active. Not all results are given here. Measured potencies and affinities stand elsewhere.
Below is a list of entries, each paired with its recorded inhibition value.
Reply numerically in %, unit not repeated.

INSERT INTO measurements (molecule, value_observed) VALUES
  ('C/C(=N\Nc1ncc(Br)cn1)c1cccc([N+](=O)[O-])c1', 10.7),
  ('O=C(NNc1ccc([N+](=O)[O-])cc1)C1C2CCCCC21 (configuration not stated)', 2.05),
  ('N=C1/C(=C\c2ccc(-c3cc(Cl)cc(Cl)c3)o2)C(=O)N=C2SC=C(c3ccccc3)N12', -1.62),
  ('COc1cc(/C=N\Nc2nc3ccccc3o2)cc(OC)c1OC', 12.1),
  ('COc1ccc(N2CCN(C(=S)Nc3ccccc3)CC2)cc1', 17.3);

[ask] Name the recorded inhibition of the molecule listed here: NS(=O)(=O)c1ccc(NC(=O)COC(=O)c2cccc(S(=O)(=O)N3CCCC3)c2)cc1
[reply] 11.7

[ask] Name the recorded inhibition of the molecule listed here: O=C1N/C(=C/c2ccc(Br)cc2)C(O)=C1C=NCc1ccccc1
[reply] 4.99

[ask] Name the recorded inhibition of the molecule listed here: COc1cc(/C=N\Nc2nc3ccccc3[nH]2)cc(OC)c1OC
[reply] 22.4

[ask] Name the recorded inhibition of the molecule listed here: COc1ccc(CN2C(=O)CSCC2=O)cc1OC
[reply] 23.5

[ask] Name the recorded inhibition of the molecule listed here: CN1CSC2=C(C#N)C(c3cccc(OCc4ccccc4)c3)CC(=O)N2C1 (configuration not stated)
[reply] 43.1

[ask] Name the recorded inhibition of the molecule listed here: COc1ccc2ccccc2c1C1CC(=O)N2CN(C)CSC2=C1C#N (configuration not stated)
[reply] 28.9

[ask] Name the recorded inhibition of the molecule listed here: COc1ccc(/C=N/Nc2nc3ccccc3[nH]2)cc1OC
[reply] 26.4

[ask] Name the recorded inhibition of the molecule listed here: CCN1CCN(C(=O)NC2CC(=O)N(c3ccc(OC)cc3)C2)CC1 (configuration not stated)
[reply] 24.6

[ask] Name the recorded inhibition of the molecule listed here: O=C1NN(c2cccc(Br)c2)C(=O)/C1=C/c1ccc(-c2cc([N+](=O)[O-])ccc2O)o1
[reply] 38.2

[ask] Name the recorded inhibition of the molecule listed here: Cc1ccc(Sc2ccc(/C=C3/C(=O)NN(c4ccccc4)C3=O)o2)cc1
[reply] 20.1

Where do the numbers come from? From PubChem BioAssay AID1903.
